Where these numbers come from: the supplement of paper PMC9112550

# Test system: Escherichia coli TOP10
# Experiment: shrunken log2 fold change of peptide-encoding DNA abundance (4.5 h post-induction vs induction); higher = less antimicrobial activity (less host growth inhibition)
# Measurement Context: time post-induction: 4.5 h; library: site-saturation at positions 5, 18, 19, 20
Parameter Measured: shrunken log2 fold change
Lab note: jot the number down without any unit.

// shrunken log2 fold change lookup, key: RRIRMRPPRLPRPRPRPNPWPRP
0.123

// shrunken log2 fold change lookup, key: RRIRARPPRLPRPRPRPCMKPRP
-0.167

// shrunken log2 fold change lookup, key: RRIRKRPPRLPRPRPRPSRVPRP
0.24

// shrunken log2 fold change lookup, key: RRIRLRPPRLPRPRPRPLIDPRP
-0.258

// shrunken log2 fold change lookup, key: RRIRDRPPRLPRPRPRPWHFPRP
-0.01

// shrunken log2 fold change lookup, key: RRIRLRPPRLPRPRPRPKFFPRP
0.002

// shrunken log2 fold change lookup, key: RRIRDRPPRLPRPRPRPEWGPRP
0.0825

// shrunken log2 fold change lookup, key: RRIRRRPPRLPRPRPRPGLEPRP
0.472

// shrunken log2 fold change lookup, key: RRIRTRPPRLPRPRPRPYARPRP
-0.000715

// shrunken log2 fold change lookup, key: RRIRQRPPRLPRPRPRPQLNPRP
-0.367

// shrunken log2 fold change lookup, key: RRIRSRPPRLPRPRPRPGQLPRP
-0.17

* * *

# Test system: Escherichia coli TOP10
# Experiment: shrunken log2 fold change of peptide-encoding DNA abundance (4.5 h post-induction vs induction); higher = less antimicrobial activity (less host growth inhibition)
# Measurement Context: time post-induction: 4.5 h; library: site-saturation at positions 5, 18, 19, 20
Given measured shrunken log2 fold change, output met if it is greater than or equal to 0.02 and not met if not.

* RRIRQRPPRLPRPRPRPEIGPRP | met

With those in mind, consider the next sequence.
Test whether the sequence RRIRTRPPRLPRPRPRPQLCPRP records shrunken log2 fold change of 0.02 or higher.
not met

* * *

# Tested on: Escherichia coli TOP10;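 note: peptides expressed intracellularly from a pBAD plasmid library in pooled LB shake-flask culture, induced with 0.3% L-arabinose, DNA abundance read by NGS, three biological replicates, DESeq2 with apeglm shrinkage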
# Experiment: shrunken log2 fold change of peptide-encoding DNA abundance (4.5 h post-induction vs induction); higher = less antimicrobial activity (less host growth inhibition)
# Measurement Context: time post-induction: 4.5 h; library: site-saturation at positions 5, 18, 19, 20
Class definitions on shrunken log2 fold change: lower level = under -0.1, middle level = from -0.1 up to 0.06, upper level = 0.06 and over

Reference set (10 entries):
• RRIRDRPPRLPRPRPRPDLDPRP = upper level
• RRIRERPPRLPRPRPRPKEYPRP = middle level
• RRIRNRPPRLPRPRPRPVGCPRP = upper level
• RRIRTRPPRLPRPRPRPSYLPRP = lower level
• RRIRLRPPRLPRPRPRPKLYPRP = middle level
• RRIRHRPPRLPRPRPRPGSNPRP = middle level
• RRIRWRPPRLPRPRPRPLTFPRP = lower level
• RRIRHRPPRLPRPRPRPILPPRP = middle level
• RRIRNRPPRLPRPRPRPYPIPRP = middle level
• RRIRERPPRLPRPRPRPPYVPRP = lower level

Would you mind sorting RRIRWRPPRLPRPRPRPGSHPRP into the appropriate category?
middle level

Would you mind sorting RRIRARPPRLPRPRPRPCPLPRP into the appropriate category?
lower level

Would you mind sorting RRIRGRPPRLPRPRPRPVNTPRP into the appropriate category?
upper level

Would you mind sorting RRIRQRPPRLPRPRPRPGGFPRP into the appropriate category?
middle level
